target: T1, rat APJ receptor (rat, UniProt Q9JHG3 1-377)
T1 sequence (looked up): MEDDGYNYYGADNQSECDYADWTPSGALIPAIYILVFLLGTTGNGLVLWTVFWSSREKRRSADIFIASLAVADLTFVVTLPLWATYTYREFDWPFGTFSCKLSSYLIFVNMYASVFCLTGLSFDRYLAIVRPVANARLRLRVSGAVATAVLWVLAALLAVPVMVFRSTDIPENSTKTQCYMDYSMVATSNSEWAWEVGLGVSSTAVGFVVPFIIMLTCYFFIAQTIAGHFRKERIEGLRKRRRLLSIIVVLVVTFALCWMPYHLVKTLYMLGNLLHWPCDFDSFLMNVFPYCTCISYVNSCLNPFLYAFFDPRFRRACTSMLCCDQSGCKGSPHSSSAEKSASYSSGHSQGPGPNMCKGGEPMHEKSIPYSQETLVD
assay: cell-based or functional assay
Starred links: 1 amine or outer side, 2 acyl side, 3 side chain; linkers in the order of their positions; H or OH if unused. Non-standard residues stand in square brackets, D forms with d. Primed or numbered codes have the meaning given here. *: point of attachment. AC4Abu = α-carboxy-4-aminobutyric acid, O=C(C(CCN[*:1])C(=O)[*:3])[*:2]; Oic = O=C(O)[C@@H]1C[C@@H]2CCCC[C@@H]2N1; Phe(4-Cl) = N[C@@H](Cc1ccc(Cl)cc1)C(=O)O; γGlu = O=C(O)[C@H](CCC(=O)[*:2])N[*:1]; NMeR = CN[C@@H](CCCNC(=N)N)C(=O)O; Palmitoyl = CCCCCCCCCCCCCCCC(=O)*; β3hF = N[C@H](CC(=O)O)Cc1ccccc1; Cha = N[C@@H](CC1CCCCC1)C(=O)O; β3hP = O=C(O)C[C@@H]1CCCN1; Nle = CCCC[C@H](N)C(=O)O; Pip′ = not defined here; AEEA = NCCOCCOCC(=O)O; Aib = CC(C)(N)C(=O)O; NPrGly = CCCNCC(=O)O
EC50 Rat APJ Receptor overview

Palmitoyl-[γGlu][AEEA][AEEA][dQ]RP[NMeR][Cha]SHKG[β3hP][Nle][Phe(4-Cl)]-OH (SMILES CCCCCCCCCCCCCCCC(=O)N[C@@H](CCC(=O)NCCOCCOCC(=O)NCCOCCOCC(=O)N[C@H](CCC(N)=O)C(=O)N[C@@H](CCCNC(=N)N)C(=O)N1CCC[C@H]1C(=O)N(C)[C@@H](CCCNC(=N)N)C(=O)N[C@@H](CC1CCCCC1)C(=O)N[C@@H](CO)C(=O)N[C@@H](Cc1c[nH]cn1)C(=O)N[C@@H](CCCCN)C(=O)NCC(=O)N1CCC[C@H]1CC(=O)N[C@@H](CCCC)C(=O)N[C@@H](Cc1ccc(Cl)cc1)C(=O)O)C(=O)O) [SEQ ID NO: 613] = 38.8 nM
Palmitoyl-[AC4Abu][AEEA][AEEA][dQ]RP[NMeR][Cha]S[NPrGly]KG[Pip′][Nle][Aib][Phe(4-Cl)]-OH [SEQ ID NO: 644] = 4.2 nM

Please find the next binder below.
EC50 Rat APJ Receptor reading for Palmitoyl-[AC4Abu][AEEA][AEEA][dQ]RP[NMeR][Cha]SHKG[Oic][Nle][β3hF]-OH (SMILES CCCCCCCCCCCCCCCC(=O)NCCC(C(=O)O)C(=O)NCCOCCOCC(=O)NCCOCCOCC(=O)N[C@H](CCC(N)=O)C(=O)N[C@@H](CCCNC(=N)N)C(=O)N1CCC[C@H]1C(=O)N(C)[C@@H](CCCNC(=N)N)C(=O)N[C@@H](CC1CCCCC1)C(=O)N[C@@H](CO)C(=O)N[C@@H](Cc1c[nH]cn1)C(=O)N[C@@H](CCCCN)C(=O)NCC(=O)N1[C@H](C(=O)N[C@@H](CCCC)C(=O)N[C@H](CC(=O)O)Cc2ccccc2)C[C@@H]2CCCC[C@@H]21) [SEQ ID NO: 578] : 4.9 nM
